Biological target: recombinant PIM-1 (Homo sapiens)
Assay: PIM-1 kinase assay (radiometric, 15 uM ATP, DMSO 4%)
Format: biochemical
Conditions: Table 1; given for compounds with IC50 at or below 2 micromolar; 15 uM ATP; read-out: PIM-1 IC50
Protocol: The following procedure was used to assay the PIM-1 kinase activity of compounds of the invention. […] (specific activity approx. 500 cpm/pmol), DMSO 4% and test inhibitor compound at the required concentration. […] The plate was washed 4 times with 0.075% phosphoric acid (100 ul per well) and then, after the addition of scintillation fluid (20 ul per well), the counts were measured by a scintillation counter.
recorded-endpoint: IC50

compound="CCN(CC)CCC(=O)Nc1cccc(-c2ccc(/C=C3/C(=O)Nc4ccccc43)o2)c1 [Compound 185]" result="< 1000 nM"
compound="O=C1Nc2ccc(Cl)cc2/C1=C\\c1ccc(-c2cncc(C(=O)NCCN3CCCC3)c2)o1 [Compound 147]" result="< 1000 nM"
compound="O=C1Nc2ccc(Cl)cc2/C1=C\\c1ccc(-c2cccc(C(=O)NCC(O)c3ccncc3)c2)o1 (stereo not shown) [Compound 190]" result="< 1000 nM"
compound="CN(C)C1CCN(C(=O)c2ccc(-c3ccc(/C=C4/C(=O)Nc5ccccc54)o3)cc2)CC1 [Compound 38]" result="< 2000 nM"
compound="O=C1Nc2ccccc2/C1=C\\c1ccc(-c2ccc(C(=O)O)nc2)o1 [Compound 127]" result="< 1000 nM"

Value lookup for IC50; key = CN1CCCC(NC(=O)c2ccc(-c3ccc(/C=C4/C(=O)Nc5ccc(F)cc54)o3)cc2)C1 (stereo not shown) [Compound 85] < 2000 nM

Value lookup for IC50; key = CN(CCN1CCCC1)C(=O)c1ccc(-c2ccc(/C=C3/C(=O)Nc4ccccc43)o2)cc1 [Compound 34] < 1000 nM

* * *

Target: recombinant PIM-1 (Homo sapiens, UniProt P11309)
Sequence (P11309 whole entry): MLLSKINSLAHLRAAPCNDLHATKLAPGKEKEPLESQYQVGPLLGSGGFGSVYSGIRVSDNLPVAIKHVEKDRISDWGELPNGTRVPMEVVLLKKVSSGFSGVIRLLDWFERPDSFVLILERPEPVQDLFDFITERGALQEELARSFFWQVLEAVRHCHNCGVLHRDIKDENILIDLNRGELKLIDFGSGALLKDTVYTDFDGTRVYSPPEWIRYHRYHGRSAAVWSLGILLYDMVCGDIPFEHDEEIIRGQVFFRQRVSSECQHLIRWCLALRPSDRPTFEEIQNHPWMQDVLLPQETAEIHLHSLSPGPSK
Experiment: PIM-1 kinase assay (radiometric, 15 uM ATP, DMSO 4%)
Assay type: biochemical
Details: Table 1; % inhibition at the high dose (2 micromolar) in a single screening assay; 15 μM ATP
recorded-endpoint: inhibition at 2 µM (%)
Give a bare numeral; the unit % is implied.

Worked set:
compound=COc1cc(CNC(=O)c2cccc(-c3ccc(/C=C4/C(=O)Nc5ccc(Cl)cc54)o3)c2)ccn1 scale_unit=% result=32.7
compound=CCN(CC)CCNC(=O)c1ccc(-c2ccc(/C=C3/C(=O)Nc4ccccc43)o2)cn1 scale_unit=% result=32.4
compound=CCCC(=O)Nc1cc(C(=O)NCCN2CCCC2)ccc1-c1ccc(/C=C2/C(=O)Nc3ccccc32)o1 scale_unit=% result=-29.9

Value lookup for inhibition at 2 µM; key = CN1CCCCC1CNC(=O)c1cccc(-c2ccc(/C=C3/C(=O)Nc4cccc(Br)c43)o2)c1 (centres unmarked) -21.9

Value lookup for inhibition at 2 µM; key = "COCCNC(=O)c1cccc(-c2ccc(/C=C3/C(=O)Nc4ccc(F)cc43)o2)c1" 49.6

Value lookup for inhibition at 2 µM; key = "O=C1Nc2ccc(Cl)cc2/C1=C\c1ccc(-c2cccc(C(=O)NCCN3CCCC3)c2)o1" 32.7

Value lookup for inhibition at 2 µM; key = "CN1CCN(C(=O)c2cccc(-c3ccc(/C=C4/C(=O)Nc5ccc(Cl)cc54)o3)c2)CC1" 23

Value lookup for inhibition at 2 µM; key = "CC(C)(C)OC(=O)Nc1cccc(-c2ccc(/C=C3/C(=O)Nc4ccccc43)o2)c1" 14.5
